Provenance of the data: the supplement of paper PMC9170038

test system: MS2 coat protein; test: apparent KD of MS2 coat protein; designed switch direction (-1 OFF switch, 1 ON switch): -1; higher = weaker reporter binding; settings: input ligand: none
PROPERTY NAME: apparent KD of MS2 coat protein
Don't forget the unit after the number, please.

// worked examples, apparent KD of MS2 coat protein included
{"CHAIN": "CCAUAGGGAGGAUAUCCAAUAUAUGACAUGAGGAUCACCCAUGUUUCCACUCGUACCUCCGGAGAAGGCCCAUAAC [Ex5 #8] (Eterna round: R97, puzzle: Exclusion 5)", "MEAS VALUE": "21.4 nM"}
{"CHAIN": "AGUUCGCAGAGAGGAUAUAUAGGGUUACGGCCUAUAGAAGGUUCACGUUAGCCGCAACAUGAGGAUCACCCAUGUGCUCCGCGA [Eternabot solution 35] (Eterna round: R96, puzzle: Exclusion NG 1)", "MEAS VALUE": "29.6 nM"}
{"CHAIN": "AUUUAGUGAGGAUAUGGUAACGUUUACAUGAGGAUCACCCAUGUUUCAUGGGACUAGAGACUAGAAGGCACUAACG [JR_Ex5_Sub029] (Eterna round: R97, puzzle: Exclusion 5)", "MEAS VALUE": "306 nM"}

Request the reported apparent KD of MS2 coat protein associated with AGUACUAACACGCAUGUGUUAGUACAAUAAGCUUGUGAAACAUGAGGAUCACCCAUGUCCUCAUAAGCUCGUCUUAU [salish99_TOv2_r3_068] (Eterna round: R96, puzzle: Sensor v3, turn-off variant 2)
17.2 nM

Fill in: apparent KD of MS2 coat protein of GGUGAGCGAGGAUAUACAUGAGGAUCACCCAUGUGACGCUGUCCUUGGAAGAACCUCUGUAGAAGGCGCGGAAU [Veisrien] (Eterna round: R97, puzzle: Exclusion 3) is ___
162 nM

----------
test system: MS2 coat protein; assay: apparent KD of MS2 coat protein; designed switch direction (-1 OFF switch, 1 ON switch): -1; higher = weaker reporter binding; settings: Eterna round: R95; input ligand: microRNA oligo, concentration not stated
PROPERTY NAME: apparent KD of MS2 coat protein (nM)
Use nM as the unit, but write only the number.

{"CHAIN": "GAAAACGUAGGAUAUACGAAAAAAAAGGGUAGAAAAAAAACACAUGAGGAUCACCCAUGUAGAAGGACGAAAAG [salish99_ex2_r3_094] (puzzle: Exclusion 2)", "apparent KD of MS2 coat protein [nM]": 38.9}
{"CHAIN": "CAUGAUCUUCGGAUCAUGGACAUGAGGAUCACCCAUGUCACGAGCAGAUCCUCAUGCAAGCUUUUUGCUCGUCUUAU [Sensor v3 - Turn-off variant 1 - 35] (puzzle: Sensor v3, turn-off variant 1)", "apparent KD of MS2 coat protein [nM]": 8.73}
{"CHAIN": "AGAUGGCGAGGAUAUACAUGAGGAUCACCCAUGUGAGAAGAAGAAGUGAGGAAGAAAAGUAGAAGGCGCUGUCA [Mat - Exclusion 3 - Mod of Salish D20] (puzzle: Exclusion 3)", "apparent KD of MS2 coat protein [nM]": 50.3}

Fill blank: measured apparent KD of MS2 coat protein of the sequence AAAGAGCGAGGAUAUACAUGAGGAUCACCCAUGUGAAGAUGCAUGGUCUGAACGUCUGGUAGAAGGCGUAUGAA [Rebierce] (puzzle: Exclusion 3) is ____.
119

Report apparent KD of MS2 coat protein for UUUAAUUUUUUUUUUUUACAAGCUUUUUGCUCGUCUUAUACAUGAGGAUCACCCAUGUAAAUGGAAGAUAAAUUAUC [JMF 7] (puzzle: Sensor v3, turn-off variant 2) please.
18.1

Request the reported apparent KD of MS2 coat protein associated with GACUGCUGAGGAUAUACAUGAGGAUCACCCAUGUGCUUCAGCUACGAAAGUAGCAUUGGUAGAAGGUAGUAGUC [LRO-Excl3-05] (puzzle: Exclusion 3)
11.5

Return reported apparent KD of MS2 coat protein; argument: GAUUGAGAGCAGGAUAUCAUAGAAAUGUAUGAAUGAGAAGGGCUCACAUGAGGAUCACCCAUGUGGUCCUAGAU [JL Dibiri mod 18] (puzzle: Exclusion 6)
21.9

If you can, please state the reported apparent KD of MS2 coat protein value of GAAAAGGUAGGAUAUACGAAAAAAAAGGGUAGAAAAAAAACACAUGAGGAUCACCCAUGUAGAAGGACCAAAGG [salish99_ex2_r3_040] (puzzle: Exclusion 2) .
28.5

# get_value(readout='apparent KD of MS2 coat protein', item= UAGUGGGUACGAAGGAGUUGUAUGAGCGGAGGCUCAGUGACAUGAGGAUCACCCAUGUAGCUUUUUGCUCGUCUUAA [JR_SV3TOV2_Sub038] (puzzle: Sensor v3, turn-off variant 2) )
109

Bench note: what apparent KD of MS2 coat protein did GUGGCACAUGAGGAUCACCCAUGUCAGGAUAUCGCGUGGUUUUUUUCGGCCGCGCGCGCGAGAAGGGACGUCUU (puzzle: Exclusion 1) show?
27.2

Consider the sequence shown here: UUUAGUUCAGGAUAUGUAGAUUUUAACAUGAGGAUCACCCAUGUAGAUCCUGAAUUAACUACAGAAGGGAACAUUC [Exclusion 5: 2:c] (puzzle: Exclusion 5) What is its recorded apparent KD of MS2 coat protein?
20.9
